Format: in vivo, human
Recorded conditions: human, plasma, oral, 200 mg, AUC0–∞,obs, tablet, single 200 mg dose, fasted, adjusted geometric mean
Reported endpoint: AUC(0-inf) (µM·h)
Expressed in µM·h, but write only the number.

Which AUC(0-inf) reading was recorded for the compound COc1cc(C(=O)NC2CCN(C)CC2)c(F)cc1Nc1ncc(C(F)(F)F)c(Oc2cccc3c2C(=O)N(C)C3)n1 ? 32

* * *

Type: in vivo, human
Recorded conditions: human, plasma, oral, 200 mg, t½, liquid dispersion, single 200 mg dose, fasted, geometric mean [coefficient of variation (%)]
Reported endpoint: half-life
In your response, put the unit directly after the numeric value.

Query (compound): COc1cc(C(=O)NC2CCN(C)CC2)c(F)cc1Nc1ncc(C(F)(F)F)c(Oc2cccc3c2C(=O)N(C)C3)n1 [BI 853520] ; field requested: half-life 1100 min
